Data origin: patent US20080227815A1

Molecular target: Rat 5-HT1A (Rattus norvegicus)
Sequence (P19327 whole entry): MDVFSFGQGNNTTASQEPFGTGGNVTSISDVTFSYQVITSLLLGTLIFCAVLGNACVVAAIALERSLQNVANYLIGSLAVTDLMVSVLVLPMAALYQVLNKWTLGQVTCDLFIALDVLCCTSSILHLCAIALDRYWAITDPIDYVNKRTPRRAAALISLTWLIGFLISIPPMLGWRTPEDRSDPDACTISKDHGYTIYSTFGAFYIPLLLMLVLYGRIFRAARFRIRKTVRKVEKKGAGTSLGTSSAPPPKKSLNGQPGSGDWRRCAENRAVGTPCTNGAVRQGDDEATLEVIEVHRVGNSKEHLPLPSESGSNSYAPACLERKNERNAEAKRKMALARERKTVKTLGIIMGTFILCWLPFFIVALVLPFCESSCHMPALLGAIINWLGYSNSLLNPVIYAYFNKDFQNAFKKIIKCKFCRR
Counter-ions that a name gives are not always drawn.
quantity_name: pKi
Give bare numbers, as −log10 of the molar value.

Look up pKi: CNC(=O)c1ccc2ccn(C3CCN(CCc4c(OC)ccc5c4OC(C)(C)CC5=O)CC3)c2c1 [Form D crystal form of fumarate]
10.35
